All figures here come from paper PMC4817154.

# tested.on: dmSERT-P488T (Drosophila melanogaster, UniProt P51905, P488T)
# protocol.description: cell-based
measure: IC50 (nM)
Express the result in nM but write the number alone.

Prompt: Look up and report measured IC50 for this entry: Fc1ccc([C@@H]2CCNC[C@H]2COc2ccc3c(c2)OCO3)cc1
Response: 20.5

---

# tested.on: dmSERT-M167I (Drosophila melanogaster, UniProt P51905, M167I)
# protocol.description: cell-based
measure: pIC50
API: returns pIC50 as number; meaning -log10 of concentration in mol/L.

Prompt: Look up and report measured pIC50 for this entry: Fc1ccc([C@@H]2CCNC[C@H]2COc2ccc3c(c2)OCO3)cc1
Response: 8.57

---

# tested.on: dmSERT-WT (Drosophila melanogaster, UniProt P51905)
measure: Ki (nM)
Express the result in nM but write the number alone.

Prompt: Check dmSERT-WT (Drosophila melanogaster, UniProt P51905) data and give Ki for Fc1ccc([C@@H]2CCNC[C@H]2COc2ccc3c(c2)OCO3)cc1 .
Response: 6.04

---

# tested.on: dmSERT-I492V (Drosophila melanogaster, UniProt P51905, I492V)
# protocol.description: cell-based
measure: IC50 (nM)
Express the result in nM but write the number alone.

Prompt: Look up and report measured IC50 for this entry: Fc1ccc([C@@H]2CCNC[C@H]2COc2ccc3c(c2)OCO3)cc1
Response: 16.3

---

# tested.on: dmSERT-D164A (Drosophila melanogaster, UniProt P51905, D164A)
# protocol.description: cell-based
measure: IC50 (nM)
Express the result in nM but write the number alone.

Prompt: Look up and report measured IC50 for this entry: Fc1ccc([C@@H]2CCNC[C@H]2COc2ccc3c(c2)OCO3)cc1 [Paroxetine]
Response: 0.86

---

# tested.on: dmSERT-P488T (Drosophila melanogaster, UniProt P51905, P488T)
# protocol.description: cell-based
measure: pKi
API: returns pKi as number; meaning -log10 of concentration in mol/L.

Prompt: Look up and report measured pKi for this entry: Fc1ccc([C@@H]2CCNC[C@H]2COc2ccc3c(c2)OCO3)cc1
Response: 7.69

---

# tested.on: dmSERT-G168A (Drosophila melanogaster, UniProt P51905, G168A)
# protocol.description: cell-based
measure: pIC50
API: returns pIC50 as number; meaning -log10 of concentration in mol/L.

Prompt: Look up and report measured pIC50 for this entry: Fc1ccc([C@@H]2CCNC[C@H]2COc2ccc3c(c2)OCO3)cc1 [Paroxetine]
Response: 8.55

---

# tested.on: dmSERT-G168A (Drosophila melanogaster, UniProt P51905, G168A)
# protocol.description: cell-based
measure: Ki (nM)
Express the result in nM but write the number alone.

Prompt: Look up and report measured Ki for this entry: Fc1ccc([C@@H]2CCNC[C@H]2COc2ccc3c(c2)OCO3)cc1
Response: 2.78

---

# tested.on: dmSERT-F90Y (Drosophila melanogaster, UniProt P51905, F90Y)
# protocol.description: cell-based
measure: pIC50
API: returns pIC50 as number; meaning -log10 of concentration in mol/L.

Prompt: Look up and report measured pIC50 for this entry: Fc1ccc([C@@H]2CCNC[C@H]2COc2ccc3c(c2)OCO3)cc1
Response: 8.27

---

# tested.on: dmSERT-I492V (Drosophila melanogaster, UniProt P51905, I492V)
# protocol.description: cell-based
measure: Ki

Prompt: Look up and report measured Ki for this entry: Fc1ccc([C@@H]2CCNC[C@H]2COc2ccc3c(c2)OCO3)cc1 [Paroxetine]
Response: 16.2 nM
